# Test system: Caco-2
# TEST METHOD NOTES: cell viability relative to DMSO; higher = less toxic
# CONDITION CONTEXT: 72 h; 10 nM
REPORTED ENDPOINT: cell viability (%)
A number alone suffices; assume %.

Study these solved cases before continuing.
Exercise: Value wanted: cell viability (Caco-2) of entry CC1(C)S[C@@H]2[C@H](NC(=O)[C@H](C(=O)O)c3ccsc3)C(=O)N2[C@H]1C(=O)O
Key: 97.6

Exercise: Moving on to CO/N=C1/C[C@@H](C(=O)NC[C@@H](O)c2ccccc2)N(C(=O)c2ccc(-c3ccccc3C)cc2)C1
Key: 99

Continuing:
Exercise: Find cell viability (Caco-2) for the entry COc1ccc(OC)c(CN(C(C)=O)c2cc(F)ccc2Oc2ccccc2)c1
Key: 112

Exercise: Next compound up: N#C/C(=C\c1cn(-c2ccccc2)c2ccccc12)C(=O)O
Key: 106

* * *

# System: Caco-2
# TEST METHOD NOTES: cell viability relative to DMSO; higher = less toxic
# CONDITION CONTEXT: 72 h; 1 nM
REPORTED ENDPOINT: cell viability (%)
Dear colleague, please return just the value in %, with no unit written.

Exercise: What does the data say about its cell viability? Entry: CC(C)(C)NCC(O)c1cc(Cl)c(N)c(C(F)(F)F)c1 (stereo not given)
Key: 87.6

Exercise: Now consider O=C(Nc1c(-c2cccs2)nc2ccccn12)c1ccc(Cl)cc1 .
Key: 99

Exercise: Input O=C1CCCCCCCCCCCCCCO1
Key: 103

Exercise: Follow-up item: C[C@@]12CCc3occc3[C@H]1CC[C@@]13C[C@@H](CC[C@H]12)[C@@](O)(CO)C3
Key: 119

Exercise: Request: N=C1CCCN1Cc1[nH]c(=O)[nH]c(=O)c1Cl
Key: 96.7

Exercise: One more molecule: O=C1CCC2CCC(=O)N12
Key: 79.1

Exercise: And then C[C@@H]1CN(Cc2ccc(F)cc2)CCN1C(=O)COc1ccc(Cl)cc1NC(N)=O , what is it?
Key: 98.2

Exercise: And what about the molecule C/C(=C(\CCOP(=O)(O)O)SC(=O)c1ccccc1)N(C=O)Cc1cnc(C)nc1N ?
Key: 99.7

Exercise: Another: Cc1cc2c(cc1C(F)(F)F)N(C(=O)Nc1ccc(Oc3cccnc3C)nc1)CC2
Key: 97.3

Exercise: Input O=C(NC1(c2ccccc2)CC1)c1c(CN2CCC(N3CCCCC3)CC2)c(-c2cccc(C(F)(F)F)c2)nc2cc(Br)ccc12
Key: 95.4

Exercise: Likewise for CC(C)c1nc(N(C)S(C)(=O)=O)nc(-c2ccc(F)cc2)c1/C=C/[C@@H](O)C[C@@H](O)CC(=O)O ?
Key: 103

Exercise: C[C@]12CCC(=O)C=C1[C@@H]1C[C@@H]1[C@H]1[C@@H]3[C@@H]4C[C@@H]4[C@@]4(CCC(=O)O4)[C@@]3(C)CC[C@@H]12 ?
Key: 86.1

Exercise: Here is the next molecule: O=[N+]([O-])c1cc2nc(O)c(O)nc2cc1[N+](=O)[O-]
Key: 86.4

Exercise: Another molecule: Cn1c([N+](=O)[O-])cnc1COC(N)=O
Key: 89.2

Exercise: Further, for CCC(C)SSc1ncc[nH]1 (stereo not given) ?
Key: 90.8

Exercise: # repeat for N#Cc1c(-c2ccccc2)cc(-c2cc(Br)ccc2O)[nH]c1=O
Key: 96.7

Exercise: Note, next up: Cc1ccc(C(=O)Nc2ccc(S(=O)(=O)O)c3cc(S(=O)(=O)O)cc(S(=O)(=O)O)c23)cc1NC(=O)c1cccc(NC(=O)Nc2cccc(C(=O)Nc3cc(C(=O)Nc4ccc(S(=O)(=O)O)c5cc(S(=O)(=O)O)cc(S(=O)(=O)O)c45)ccc3C)c2)c1
Key: 93.5

Exercise: N[C@@H]1CONC1=O ?
Key: 89.5

Exercise: Now the molecule O=c1cccc2n1C[C@H]1C[C@@H]2CN(CCN2C[C@@H]3C[C@H](C2)c2cccc(=O)n2C3)C1
Key: 98.2

Exercise: What about this molecule? COc1ccc(OC)c(CN(C(C)=O)c2cc(F)ccc2Oc2ccccc2)c1
Key: 93.4

Exercise: Record: COc1cc(C(=O)OCCCN2CCCN(CCCOC(=O)c3cc(OC)c(OC)c(OC)c3)CC2)cc(OC)c1OC
Key: 91.6
